System: Plasmodium falciparum
Test Protocol: GSK_TCMDC: Inhibition of Plasmodium falciparum Dd2 in whole red blood cells, using parasite LDH activity as an index of growth. Test compounds present at 2uM
Assay type: functional
So basically: Inhibition at 90% or higher? That is yes (1). Lower than 90%? That is no (0).

Study these solved cases before continuing.
>>> class_label("CC(C)CNCc1ccc(OCc2cccc(COc3ccc(CNCC(C)C)cc3I)c2)c(I)c1.Cl")
"no (0)"
>>> class_label("CC1CCN(Cc2c(O)ccc3c(CN4CCC(C)CC4)c(O)ccc23)CC1.Cl")
"no (0)"
>>> class_label("O=C(CN(c1cccc(C(F)(F)F)c1)S(=O)(=O)c1ccc(Cl)cc1)NCCC(c1ccccc1)c1ccccc1")
"no (0)"
>>> class_label("Cl.O=C(/C=C/c1ccc(Cl)c(Cl)c1)N1CCC(CCN2CCC(c3c[nH]c4cnccc34)CC2)CC1")
"yes (1)"
>>> class_label("CCN(CC)CCCCNc1cc(-c2[nH]c(C(C)(C)C)nc2-c2ccc3cc(OC)ccc3c2)ccn1.O=C(O)C(F)(F)F")
"no (0)"
>>> class_label("Cl.O=C(Nc1ccc(NC2=NCCN2)cc1)c1ccc(C(=O)Nc2ccc(NC3=NCCN3)cc2)cc1")
"no (0)"

API: the following record is the query input.
Ask: Given CC(C)C[C@H](NC(=O)c1ccc(OCCN2CCOCC2)cc1)C(=O)NC(/C=N/N1CCCC1=O)C(C)C (some centres not stated) , state whether its Inhibition is at least 90%.
Reply: no (0)

Cited source: ChEMBL document CHEMBL1157539
